system: ACHN; assay: Tested for the in vitro cytotoxicity against ACHN renal cancer cell line; format: functional, Homo sapiens; settings: Homo sapiens, ACHN
assay_readout: log10 GI50 (log10 of the value in nM)
Please interpret these as log10 of GI50 where GI50 is in nM.

{"columns": ["molecule", "assay_readout", "numeric_value"],
 "data": [
  ["COc1cc([C@@H]2c3cc4c(cc3[C@@H](Nc3ccc(NC(=O)c5cc(NC(=O)c6cc([N+](=O)[O-])cn6C)cn5C)cc3)[C@H]3COC(=O)[C@H]23)OCO4)cc(OC)c1O", "log10 GI50", 2.36]
]}

### Prompt Please report log10 GI50 for the following molecule: CNCCN[C@@H]1c2cc3c(cc2[C@@H](c2cc(OC)c(O)c(OC)c2)[C@H]2C(=O)OC[C@@H]21)OCO3
### Response 1.82

### Prompt Please report log10 GI50 for the following molecule: COc1cc([C@@H]2c3cc4c(cc3[C@@H](NC(=O)NO)[C@H]3COC(=O)[C@H]23)OCO4)cc(OC)c1O
### Response 3.78

### Prompt Please report log10 GI50 for the following molecule: COc1cc([C@@H]2c3cc4c(cc3[C@@H](O[C@@H]3O[C@@H]5CO[C@@H](C)O[C@H]5[C@H](O)[C@H]3O)[C@H]3COC(=O)[C@H]23)OCO4)cc(OC)c1O [ETOPOSIDE]
### Response 2.94

### Prompt Please report log10 GI50 for the following molecule: COc1cc([C@@H]2c3cc4c(cc3[C@@H](Nc3ccc(NC(=O)c5cc([N+](=O)[O-])cn5C)cc3)[C@H]3COC(=O)[C@H]23)OCO4)cc(OC)c1O
### Response 1.07

Data origin: ChEMBL document CHEMBL1129858
